Cited source for all entries: the supplement of paper PMC9446081

Tested on: Escherichia coli K-12 BW25113;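 further: Wild-type cells incubated without shaking, value is the mean of two biological replicates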
EXPERIMENT DESCRIPTION: relative growth (OD600 normalised to plate interquartile mean) (fraction); higher = less growth inhibition, active = 0.2 or less
CONDITION SUMMARY: 50 µM; LB; incubation time: overnight (16-24 h)
Hit rate of the full screen: of about 39,000 compounds, about 220 (0.56%) showed activity. The full list was thinned out, with actives kept by preference.
Possible outcomes: active, inactive

[[record]]
structure_smiles = "CN(C)[C@@H]1C(=O)[C@H](C(N)=O)C(=O)[C@@]2(O)C(=O)[C@@H]3C(=O)c4c(O)cccc4[C@@](C)(O)[C@H]3C[C@@H]12"
tested_system = "Escherichia coli K-12 BW25113"
assigned_category = "active"

[[record]]
structure_smiles = "CN(C)[C@@H]1C(=O)[C@@H](C(N)=O)C(=O)[C@@]2(O)C(=O)[C@H]3C(=O)c4c(O)ccc(Cl)c4[C@@](C)(O)[C@H]3C[C@@H]12"
tested_system = "Escherichia coli K-12 BW25113"
assigned_category = "active"

[[record]]
structure_smiles = "COc1c(C[C@@H](C)O)c2c3c(C[C@@H](C)O)c(OC)c(=O)c4c(O)cc5c(c6c(cc(O)c(c1=O)c62)OCO5)c43"
tested_system = "Escherichia coli K-12 BW25113"
assigned_category = "inactive"

